biological target: T1, β2-Microglobulin (Homo sapiens, UniProt P61769); assay: SPR; Biacore T200; β2M immobilised on a CM5 chip to 150 RU; VHH samples after the modification procedure (NHS-Fluo:VHH 0, 1, 5 or 20; 2 h at 4 °C, ultrafiltration) in 2-fold serial dilution, 30 μL/min, HBS-EP+, 25 °C; 1:1 model with drift and RI2; conditions: both partners purified
T1 construct: human β2-microglobulin; Amine-coupled to a CM5 chip (150 RU); also called antigen β2M; source: expressed and purified as previously described [27]
T1 sequence (P61769 21-119): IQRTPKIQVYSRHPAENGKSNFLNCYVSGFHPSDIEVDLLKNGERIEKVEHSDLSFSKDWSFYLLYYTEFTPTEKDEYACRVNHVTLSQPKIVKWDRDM
Quick reference: kon of the listed items.
Report the value in M⁻¹ s⁻¹ with no unit label.

Field: example entries. Status: answers known.
I would be grateful if you could share the reported kon for NB-3 modified with 20 times of NHS-Fluo (VHH, as the VHH domain of Dm10; flexible (G4S)4 linker between the VHH domain and the His6 tag, written out from '(G4S)4'; A mixture of isomers with different numbers and places of fluorescein; also called NB-3-20; source: E. coli SHuffle T7, purified (HisTrap HP), modified with NHS-Fluo, ultrafiltration) VHH: QVQLVESGGGLVQPGGSLRLSCAASGFSLDYYAIGWFRQAPGKEREGVSCISSSDDSTYYAGSVKGRFKISRDNAKSTVYLQMNSLKPEDSAVYYCAALHSGNYYYTPSYICDAEMDYWGKGTLVTVSS . 286

Now try NB-3 (VHH, VHH domain of NB-3; flexible (G4S)4 linker between the VHH domain and the His6 tag, written out from '(G4S)4'; VHH-(G4S)4-His6; Template of the homology model: PDB 5J56 (GMQE 0.93). 'Origin' = no treatment; '0' = negative control; also called NB-3-Origin; NB-3-0; source: E. coli SHuffle T7, purified (HisTrap HP)) VHH: QVQLVESGGGLVQPGGSLRLSCAASGFSLDYYAIGWFRQAPGKEREGVSCISSSDDSTYYAGSVKGRFKISRDNAKSTVYLQMNSLKPEDSAVYYCAALHSGNYYYTPSYICDAEMDYWGKGTLVTVSS . 1310

For the next question, use this binder.
# get_value(readout='kon', item= NB-2 modified with 20 times of NHS-Fluo (VHH, as the VHH domain of Dm6; flexible (G4S)4 linker between the VHH domain and the His6 tag, written out from '(G4S)4'; A mixture of isomers with different numbers and places of fluorescein; also called NB-2-20; source: E. coli SHuffle T7, purified (HisTrap HP), modified with NHS-Fluo, ultrafiltration) VHH: QVQLVESGGGLVQHGGSLRLSCAASGSAFSTYSMTWHRQAPGKGREWVAGVDRSNSDTNYADSVKGRFTIYRDNAQNTVYLRMNSLKPEDTAVYYCSAERLDGSVRREYWGQGTQVTVSS ) 77.4
